- Tested on: Plasmodium berghei line expressing luciferase (Pb-luc) sporozoites
- Run Description: Liver stage P. berghei luciferase proliferation assay in CD81-GFP-HepG2 cells
- Assay type: cell-based
- Condition Parameters: values marked * in Table 2, CD81-GFP-HepG2 cells, 48 h, luminescence, read-out: EC50 (nM), P. berghei luciferase Proliferation Assay
- Experimental: Liver Stage P. berghei Luciferase Proliferation Assay CD81-GFP-HepG2 cells (obtained from the lab of Dominique Mazier) were seeded into GNF custom Greiner plates (1536-well, white, TC-treated, solid bottom). […] Luciferase signal, which corresponds with parasite proliferation, was detected by adding 2 uL of BrightGlo (Promega) to each well using the MicroFlo (Biotek; 1 ul cassette). Luminescence was immediately measured on an Envision MultiLabel Plate Reader (PerkinElmer).
molecules and their reported EC50
The answer is to be given in nM; state only the numeric part.

Consider the reported EC50 for these molecules:
## Task Request the reported EC50 associated with CNC(=O)c1ccc(-c2cnn3ccc(C(=O)N(c4ccc(C(F)(F)F)cn4)C4CCC4)cc23)cn1 [Example 161]
## Result 41

## Task Request the reported EC50 associated with CNC(=O)c1ccc(-c2cnn3ccc(C(=O)N(c4ccc(C#N)cc4)C4CCC4)cc23)cn1 [Example 145]
## Result 8

Further cases:
## Task Request the reported EC50 associated with CNC(=O)c1ccc(-c2cnn3ccc(N(C(=O)c4ccc(C#N)cn4)C4CC4)cc23)cc1 [Example 147]
## Result 151

## Task Request the reported EC50 associated with CCN(C(=O)c1ccn2ncc(-c3ccc(C(=O)NC)nc3)c2c1)c1ccc(C(F)(F)F)cn1 [Example 157]
## Result 60

## Task Request the reported EC50 associated with CNC(=O)c1ccc(-c2cnn3ccc(C(=O)N(c4ccc(F)cn4)C(C)C)cc23)cn1 [Example 156]
## Result 54

Source of measurements: patent US9556169B2
